Reference source: ChEMBL document CHEMBL1275453

Exercise: state measured Activity for each of the molecules provided.
# Tested on: Parabacteroides distasonis
# EXPERIMENT_SUMMARY: Antibacterial activity against Bacteroides distasonis assessed as percent resistant isolates by agar dilution method
# Type: functional
Answers are plain numbers, in %.

# example entries with known answers
| MOL_SMILES | TESTED_SYSTEM | Activity, % |
| --- | --- | --- |
| CO[C@@]1(NC(=O)Cc2cccs2)C(=O)N2C(C(=O)O)=C(COC(N)=O)CS[C@@H]21 | Parabacteroides distasonis | 25.6 |
| O=C(N[C@H](CO)[C@H](O)c1ccc([N+](=O)[O-])cc1)C(Cl)Cl | Parabacteroides distasonis | 0 |

Name the reported Activity value associated with the molecule CN(C)c1cc(NC(=O)CNC(C)(C)C)c(O)c2c1C[C@H]1C[C@H]3[C@H](N(C)C)C(O)=C(C(N)=O)C(=O)[C@@]3(O)C(O)=C1C2=O
8.3
